- protocol notes: RPMI8226 myeloma cell viability, profiling panel, resazurin fluorescence, basal, 24 h, PK04 Diversity Set (AID 1180);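 note: RPMI8826 multiple myeloma cell line at 5000 cells per well; test concentration not given here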
- recorded conditions: higher = more signal
attribute measured: z-score
// response body must contain only the number

Short answer for Cc1ccccc1C(O)C1C=CC2C(=O)N(c3ccccc3)C(=O)C2N1Nc1ccccc1F (centres undefined) : z-score was -1.01

Short answer for CCN(CC)c1ccc(N2CC=CC34O[C@@H]5C=CCOC(=O)[C@@H]5[C@H]3C(=O)N(CCCO)[C@@H]4C2=O)cc1 (some centres undefined) : z-score was 0.4

Short answer for CC(=O)c1ccc(C(O)C2C=CC3C(=O)N(C)C(=O)C3N2NC(=O)OC(C)(C)C)cc1 (centres undefined) : z-score was -1.05

Short answer for CCCCN1CC=CC23O[C@@H]4C=CCOC(=O)[C@@H]4[C@H]2C(=O)N(CCO)[C@@H]3C1=O (some centres undefined) : z-score was -0.236
